Where do these numbers come from? They come from patent US7135466B2.

- target-desc: PDGF-Ra (Homo sapiens, UniProt P16234)
- Construct: host or cells: G-292 human osteosarcoma cells
- Sequence (P16234 24-1089): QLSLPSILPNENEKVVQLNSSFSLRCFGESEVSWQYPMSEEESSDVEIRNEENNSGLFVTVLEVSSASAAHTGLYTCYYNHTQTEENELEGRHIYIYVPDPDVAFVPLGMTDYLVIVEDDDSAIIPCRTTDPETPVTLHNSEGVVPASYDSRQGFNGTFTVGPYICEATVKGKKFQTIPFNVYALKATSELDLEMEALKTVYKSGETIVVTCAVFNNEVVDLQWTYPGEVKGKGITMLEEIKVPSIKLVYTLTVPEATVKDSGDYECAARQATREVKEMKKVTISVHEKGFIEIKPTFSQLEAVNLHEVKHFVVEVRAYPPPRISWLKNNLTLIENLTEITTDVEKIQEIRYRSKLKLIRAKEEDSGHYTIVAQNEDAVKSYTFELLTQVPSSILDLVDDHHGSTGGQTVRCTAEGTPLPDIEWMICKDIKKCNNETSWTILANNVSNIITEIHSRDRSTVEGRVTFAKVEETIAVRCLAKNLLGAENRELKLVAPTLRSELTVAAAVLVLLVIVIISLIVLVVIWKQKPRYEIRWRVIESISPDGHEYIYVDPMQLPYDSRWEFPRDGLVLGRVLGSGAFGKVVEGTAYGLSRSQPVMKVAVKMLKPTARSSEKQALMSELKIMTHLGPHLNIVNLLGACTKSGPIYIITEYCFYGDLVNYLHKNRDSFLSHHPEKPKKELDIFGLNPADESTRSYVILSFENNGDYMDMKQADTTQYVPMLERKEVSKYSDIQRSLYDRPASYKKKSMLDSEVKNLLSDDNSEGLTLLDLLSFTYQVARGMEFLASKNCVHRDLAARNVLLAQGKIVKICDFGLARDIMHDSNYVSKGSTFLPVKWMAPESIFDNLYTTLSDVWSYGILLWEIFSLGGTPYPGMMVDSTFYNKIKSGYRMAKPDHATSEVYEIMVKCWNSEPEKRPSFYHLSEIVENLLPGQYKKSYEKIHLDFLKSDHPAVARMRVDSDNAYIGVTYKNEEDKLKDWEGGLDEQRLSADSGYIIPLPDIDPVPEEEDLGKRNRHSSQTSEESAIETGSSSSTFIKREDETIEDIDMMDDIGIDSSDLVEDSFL
- test-details: Inhibitory activity against PDGF-Ra phosphorylation by PDGF-AA stimulation using G292
- Format: cell-based
- assay-conditions: Pharmacological Test Example 1; > means inhibition at indicated concentration not more than 50%, < and << not less than 50%; read-out: PDGF (E) IC50
result-type: IC50 (nM)
State just the number; it will be interpreted in nM.

Field: example entries. Status: answers known.
INSERT INTO assay_data (molecule, target_desc, scale_unit, test_result) VALUES
  ('COc1cc2nccc(Oc3ccc(NC(=O)Sc4ccc(Cl)cc4C)c(C)c3C)c2cc1OC [Example 177]', 'PDGF-Ra (Homo sapiens, UniProt P16234)', 'nM', 19),
  ('COc1ccc(OCCCOC(=O)Nc2cc(C)c(Oc3ccnc4cc(OC)c(OC)cc34)cc2C)cc1 [Example 44]', 'PDGF-Ra (Homo sapiens, UniProt P16234)', 'nM', 19),
  ('COc1cc2nccc(Oc3cc(C)c(NC(=O)OC(C)c4cccc(C(F)(F)F)c4)cc3C)c2cc1OC (stereo not shown) [Example 89]', 'PDGF-Ra (Homo sapiens, UniProt P16234)', 'nM', 14),
  ('CCCC(CC)OC(=O)Nc1ccc(Oc2ccnc3cc(OC)c(OC)cc23)cc1 (stereo not shown) [Example 258]', 'PDGF-Ra (Homo sapiens, UniProt P16234)', 'nM', 3),
  ('COc1cc2nccc(Oc3ccc(NC(=O)OCCC4CCCCC4)c(C)c3C)c2cc1OC [Example 355]', 'PDGF-Ra (Homo sapiens, UniProt P16234)', 'nM', 24);

# ---- query molecule ----
What the record says about CCCOC(=O)Nc1ccc(Oc2ccnc3cc(OC)c(OC)cc23)c(C)c1C [Example 215] : IC50 is 8

* * *

- target-desc: PDGF-Ra (Homo sapiens)
- Construct: host or cells: G-292 human osteosarcoma cells
- test-details: Inhibitory activity against PDGF-Ra phosphorylation by PDGF-AA stimulation using G292
- Type: cell-based
- assay-conditions: > means inhibition at indicated concentration not more than 50%, < and << not less than 50%; read-out: PDGF (E) IC50
result-type: IC50 (nM)
State just the number; it will be interpreted in nM.

Field: example entries. Status: answers known.
INSERT INTO measurements (molecule, result_type, scale_unit, test_result) VALUES
  ('COc1cc2nccc(Oc3ccc(NC(=O)NCCN(C)C)c(C)c3C)c2cc1OC', 'IC50', 'nM', 49),
  ('COc1cc2ncnc(Oc3ccc(N(C)C(=O)OCC4CCCCCC4)cc3)c2cc1OC', 'IC50', 'nM', 12),
  ('COc1cc2nccc(Oc3ccc(NC(=S)NCCCN4CCCCC4C)c(C)c3C)c2cc1OC (centres unmarked)', 'IC50', 'nM', 62),
  ('COc1cc(Oc2ncnc3cc(OC)c(OC)cc23)ccc1NC(=O)NCCCN1CCN(C)CC1', 'IC50', 'nM', 58),
  ('C=C(C)COC(=O)Nc1cc(C)c(Oc2ccnc3cc(OC)c(OC)cc23)cc1C', 'IC50', 'nM', 46),
  ('COc1cc2nccc(Oc3ccc(NC(=S)NC(=O)C4CC4c4ccccc4)cc3)c2cc1OC (centres unmarked)', 'IC50', 'nM', 16);

Value sought: IC50, system PDGF-Ra (Homo sapiens), item CCN(CCNC(=O)Nc1ccc(Oc2ncnc3cc(OC)c(OC)cc23)cc1Cl)c1cccc(C)c1 . Result: 11
